Tested on: DBA/2 mice
experiment_notes: DBA2 mouse model of anticonvulsant efficacy (sound-induced seizures)
Assay type: in vivo, mouse (male DBA/2)
condition_label: first value of the column; time not printed
Protocol: DBA2 Mouse Model of Anticonvulsant Efficacy All procedures were carried out in compliance with the NIH Guide for the Care and Use of Laboratory Animals under a protocol approved by the Parke-Davis Animal Use Committee. […] Any mouse falling from the wire mesh was scored as ataxic (Coughenour L. L., McLean J. R., Parker R. B., "A new device for the rapid measurement of impaired motor function in mice," Pharm. Biochem. Behav., 1977;6(3):351-3). […] Doses are expressed as weight of the active drug moiety.
property_label: DBA 2 % Protect (time) (%)
Value expressed in %; do not type the unit.

Consider the reported DBA 2 % Protect (time) for these compounds:
CC(C)C[C@@H]1CNC[C@@H]1C(=O)O (stereo in doubt)    0
CC(C)C[C@H]1CNC[C@@H]1C(=O)O    20

In plain terms, NCC1(CC(=O)O)CCCCC1 [reference compound] has a documented DBA 2 % Protect (time) of 100

In plain terms, Cl.O=C(O)[C@H]1CNCC12CCCCC2 has a documented DBA 2 % Protect (time) of 20

In plain terms, CC(C)C[C@H]1CNC[C@@H]1C(=O)O (stereo in doubt) has a documented DBA 2 % Protect (time) of 0

In plain terms, CC(C)C[C@H](CN)CC(=O)O [reference compound] has a documented DBA 2 % Protect (time) of 100

----------
Reported CITH % MPE 2 h values follow for various molecules
System: carrageenin-induced hyperalgesia
experiment_notes: CITH / carrageenin-induced hyperalgesia
Format: in vivo, rat (male Sprague-Dawley)
condition_label: 2 h; Table I
Value expressed in % MPE; do not type the unit.

Cl.O=C(O)[C@H]1CNCC12CCCCC2    4.6

In plain terms, NCC1(CC(=O)O)CCCCC1 [reference compound] has a documented CITH % MPE 2 h of 19.9

In plain terms, CC(C)C[C@@H]1CNC[C@@H]1C(=O)O (stereo in doubt) has a documented CITH % MPE 2 h of 3.3

In plain terms, CC(C)C[C@H]1CNC[C@@H]1C(=O)O (stereo in doubt) has a documented CITH % MPE 2 h of -15

In plain terms, CC(C)C[C@H](CN)CC(=O)O [reference compound] has a documented CITH % MPE 2 h of 50.1

----------
target_desc: α2δ subunit of a calcium channel (Sus scrofa, UniProt A0A287BIN3)
Construct: α2δ subunit derived from porcine brain tissue
Sequence (A0A287BIN3 entry or part of it): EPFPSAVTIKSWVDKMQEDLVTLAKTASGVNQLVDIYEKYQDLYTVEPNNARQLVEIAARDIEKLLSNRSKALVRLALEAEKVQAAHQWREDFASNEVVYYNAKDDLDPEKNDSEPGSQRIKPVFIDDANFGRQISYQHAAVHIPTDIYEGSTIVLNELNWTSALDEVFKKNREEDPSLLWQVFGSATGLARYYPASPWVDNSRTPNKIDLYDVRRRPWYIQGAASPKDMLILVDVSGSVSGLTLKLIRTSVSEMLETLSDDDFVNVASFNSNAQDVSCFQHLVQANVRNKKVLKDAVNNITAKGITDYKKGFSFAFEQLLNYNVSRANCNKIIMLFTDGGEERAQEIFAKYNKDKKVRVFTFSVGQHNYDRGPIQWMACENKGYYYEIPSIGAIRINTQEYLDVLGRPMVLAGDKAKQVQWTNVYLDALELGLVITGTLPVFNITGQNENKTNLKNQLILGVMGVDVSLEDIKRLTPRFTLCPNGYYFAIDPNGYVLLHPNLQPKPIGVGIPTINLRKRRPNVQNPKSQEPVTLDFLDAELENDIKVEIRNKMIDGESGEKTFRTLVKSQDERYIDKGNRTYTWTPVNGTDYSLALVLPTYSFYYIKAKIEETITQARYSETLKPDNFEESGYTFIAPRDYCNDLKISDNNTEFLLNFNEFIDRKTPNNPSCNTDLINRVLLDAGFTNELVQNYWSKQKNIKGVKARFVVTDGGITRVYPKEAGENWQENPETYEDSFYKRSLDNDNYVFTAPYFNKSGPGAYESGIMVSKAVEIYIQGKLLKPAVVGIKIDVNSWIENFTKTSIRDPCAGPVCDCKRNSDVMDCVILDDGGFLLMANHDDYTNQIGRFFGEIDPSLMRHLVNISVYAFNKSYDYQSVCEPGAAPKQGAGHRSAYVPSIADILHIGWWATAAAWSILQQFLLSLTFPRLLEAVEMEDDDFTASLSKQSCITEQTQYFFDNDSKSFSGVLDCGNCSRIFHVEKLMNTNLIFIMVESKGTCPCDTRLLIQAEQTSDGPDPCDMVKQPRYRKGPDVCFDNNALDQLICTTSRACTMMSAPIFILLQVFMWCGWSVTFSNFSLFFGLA
experiment_notes: [3H]gabapentin (GAP) radioligand binding assay, α2δ subunit
property_label: IC50 (nM)
Value expressed in nM; do not type the unit.

CC(C)C[C@H]1CNC[C@H]1C(=O)O (stereo in doubt)    135
CC(C)[C@H]1CNC[C@@H]1C(=O)O (relative stereo)    543
CC1(C)CNCC1C(=O)O (racemic)    1190

In plain terms, CCCC[C@H]1CNC[C@@H]1C(=O)O (relative stereo) has a documented IC50 of 64

In plain terms, C[C@H]1CNC[C@@H]1C(=O)O (relative stereo) has a documented IC50 of 3100

In plain terms, CC(C)C[C@H](CN)CC(=O)O [reference compound] has a documented IC50 of 87

In plain terms, CC(C)C[C@@H]1CNC[C@@H]1C(=O)O (stereo in doubt) has a documented IC50 of 700

In plain terms, Cl.O=C(O)[C@H]1CNCC12CCCCC2 [hydrochloride] has a documented IC50 of 120

In plain terms, CCC[C@H]1CNC[C@@H]1C(=O)O (relative stereo) has a documented IC50 of 30
